# Tested on: 786-0 renal
# protocol: NCI tumour cell line growth inhibition, 48 h
Where a SMILES comes first, the peptide text is derived from it. [ ]: non-standard residue; d: D form. The star is where a group is joined. Octanoyl = CCCCCCCC(=O)*; Aib = CC(C)(N)C(=O)O; tBu = CC(C)(C)*
molecules and their reported TGI

1. COc1cc2nc(Nc3cccc(F)c3)nc(Nc3cc(C)[nH]n3)c2cc1OC :: 3.45 µM
2. CC(C)=CC(=O)Cc1nc2cc(C)c(C)cc2[nH]c1=O :: > 100 µM
3. O=[N+]([O-])O.[Ga] :: > 10000 µM

Which TGI is reported with 786-0 renal for this entry: O=c1oc2ccc3ccccc3c2cc1-c1nc2ccccc2o1 ?
42.2 µM

Which TGI is reported with 786-0 renal for this entry: O=C(OC(=C(c1ccccc1)c1ccccc1)N1CCCC1=S)C(c1ccccc1)c1ccccc1 ?
> 10 µM

Which TGI is reported with 786-0 renal for this entry: O=C(NO)C12C3C4C1C1C2C3C41C(=O)NO (stereo not given) ?
> 100 µM

Which TGI is reported with 786-0 renal for this entry: CCOC(=O)c1c(-c2ccc(OC)cc2)c(C#N)c(=S)n(C2OC(CO)C(O)C(O)C2O)c1-c1ccccc1 (stereo not given) ?
> 100 µM

Which TGI is reported with 786-0 renal for this entry: CC(=O)N[C@H]1CCCC[C@@H]1OC(C)=O ?
> 100 µM

Which TGI is reported with 786-0 renal for this entry: COc1cc(/C=C2\COc3ccc(O)c(O)c3C2=O)cc(OC)c1 ?
3.78 µM

Which TGI is reported with 786-0 renal for this entry: NCCC(O)(P(=O)(O)O)P(=O)(O)O ?
> 100 µM

Which TGI is reported with 786-0 renal for this entry: COc1ccc(O)c(C=NCCCN=Cc2cc(OC)ccc2O)c1 ?
> 100 µM

Which TGI is reported with 786-0 renal for this entry: Cc1[nH]c(=O)[nH]c(=O)c1CO ?
> 100 µM

Which TGI is reported with 786-0 renal for this entry: CCOC(=O)[C@@]12CCC(C1=O)[C@](C)(O)C[C@@H]2c1ccccc1 ?
68.8 µM

Which TGI is reported with 786-0 renal for this entry: CN(C)c1ccc(/C=C(\NC(=O)c2ccccc2)C(=O)NC(CCC(=O)O)C(=O)O)cc1 (stereo not given) ?
> 100 µM

Which TGI is reported with 786-0 renal for this entry: COc1ccc([C@H]2CC(=O)NCCCCN2)cc1 ?
> 100 µM

Which TGI is reported with 786-0 renal for this entry: CCCCCCCC(=O)NC(C)(C)C(=O)NC(COC(C)(C)C)C(=O)NC(CC(C)C)C(=O)NC(C)(C)C(=O)NC(COC(C)(C)C)C(=O)NC(COC(C)(C)C)C(=O)NC(CC(C)C)C(=O)NC(C)(C)C(=O)NC(COC(C)(C)C)C(=O)NC(C(=O)NC(CC(C)C)C(=O)OC)C(C)CC (stereo not given) (Octanoyl-[Aib]S(tBu)L[Aib]S(tBu)S(tBu)L[Aib]S(tBu)IL-OMe; configuration not given here) ?
23.4 µM

Which TGI is reported with 786-0 renal for this entry: O=c1c2ccccc2c2nc3ccccc3nc2n1C1CCCCC1 ?
> 100 µM

Which TGI is reported with 786-0 renal for this entry: OCC12C3C4C1C1C2C3C41CO (stereo not given) ?
> 100 µM

Which TGI is reported with 786-0 renal for this entry: CN(C1=NCCO1)c1cccc2c1CCCC2 ?
> 10 µM

Which TGI is reported with 786-0 renal for this entry: NS(=O)(=O)c1ccc(N2N=C3c4ccccc4CC3C2c2ccc(Cl)cc2)cc1 (stereo not given) ?
24.9 µM

* * *

# Tested on: CCRF-CEM leukemia
# protocol: NCI tumour cell line growth inhibition, 48 h
molecules and their reported TGI
Report the figure in µM without appending any unit label.

1) CC(C)OP(=O)(OC(C)C)C(=Nc1ccccc1)NNc1ccc([N+](=O)[O-])cc1 :: 56.9

Consider the additional molecule presented here.
// TGI lookup, key: C=C1C(=O)O[C@H]2[C@H]1CC/C(COC(=O)NCc1c[nH]c3ccc(Cl)cc13)=C\CC[C@@]1(C)O[C@@H]21
1.88

* * *

# Test system: K-562 leukemia
# protocol: NCI tumour cell line growth inhibition, 48 h; in the data active means GI50 below about 0.43 µM; inactive means the rest
Write down one outcome, taken from active, inactive

Worked set:
1) N#Cc1ccnc(N2C(=O)CC[C@H]2C(=O)N(c2cncc(F)c2)[C@H](C(=O)NC2CC(F)(F)C2)c2ccccc2Cl)c1 :: inactive
2) CCn1cnc2c(Nc3cccc(Cl)c3)nc(N[C@@H]3CCCC[C@@H]3N)nc21 :: inactive
3) COc1cc2nc(Nc3cccc(F)c3)nc(Nc3cc(C)[nH]n3)c2cc1OC :: inactive
4) CCC(C)C(NC(=O)C1CCCN1C(=O)C(NC(=O)C(C)N)C(C)C)C(N)=O (stereo not given) :: inactive
5) N.N.NCCCCN.O=C([O-])C1(C(=O)[O-])CCC1.O=C([O-])C1(C(=O)[O-])CCC1.[Pt+4].[Pt+4] :: inactive

Recorded call for C=C(C)[C@@H]1CC[C@]2(C)[C@H](CC[C@@H]3[C@H]4[C@H]5OC[C@@]4(CCC5(C)C)CC[C@]32C)[C@@]1(C)CCCN ?
inactive

Recorded call for CO[C@@H]1[C@H](OC(=O)NC(=O)CCl)CC[C@]2(CO2)[C@H]1[C@@]1(C)O[C@@H]1CC=C(C)C ?
inactive

Recorded call for COc1ccc(NC(=O)c2sc3nc(C)c(C(O)c4ccccc4)cc3c2N)cc1 (stereo not given) ?
inactive

Recorded call for CCC(=C/[C@H](C)C/C=C/C(C)=C/[C@@H](C)C(=O)[C@@H](C)[C@H](O)[C@@H](C)CC)/C=C/[C@H]1OC(=O)C=C[C@H]1C ?
active

Recorded call for COc1ccc([N+](=O)[O-])c(S(=O)(=O)c2ccc(Cl)cc2)n1 ?
inactive

* * *

# Test system: EKVX NSCLC
# protocol: NCI tumour cell line growth inhibition, 48 h
measurement label: TGI

Worked cases, answers included:
1. CC(=O)N=c1ccc2nc3c(cc(N)c4ccccc43)oc-2c1 :: 4.54 µM
2. C=C(C)[C@@H]1CC[C@]2(C)[C@H](CC[C@@H]3[C@H]4[C@H]5OC[C@@]4(CCC5(C)C)CC[C@]32C)[C@@]1(C)CCCN :: 3.31 µM
3. CC1=C(C(=O)NCc2ccccc2)C(c2ccccc2[N+](=O)[O-])C(C(=O)NCc2ccccc2)=C(C)N1 :: 30.1 µM
4. O=C(CCCl)NNC1=NCCN1 :: > 100 µM
5. Cc1cc(Cl)cc2c1NC(=O)C2(O)C(C)C(=O)c1ccc(Cl)cc1 (centres undefined) :: > 100 µM

Consider the additional compound presented here.
// TGI lookup, key: CC1CCC2C(C(=O)O[C@H]3C4CCO[C@@H](OC5OC(CO)C(O)C(O)C5O)C4[C@@]4(CO)O[C@@H]34)=CO[C@@H](OC3OC(CO)C(O)C(O)C3O)C12 (some centres undefined)
> 10 µM

* * *

# System: HCC-2998 colon
# protocol: NCI tumour cell line growth inhibition, 48 h
compounds and their reported TGI

Worked cases, answers included:
1) COc1ccccc1Cn1nc(OC)c2cc([N+](=O)[O-])ccc21 :: > 100 µM
2) O=[N+]([O-])c1cc(Cl)cc2cc(Cl)cnc12 :: > 100 µM

// TGI lookup, key: N#Cc1cc([N+](=O)[O-])ccc1NC(=O)C(=O)C(C(=O)/C=C/c1ccccc1)C1OC(=O)c2ccccc21 (centres undefined)
> 100 µM

// TGI lookup, key: Nc1c(C(=O)Nc2ccccc2Cl)sc2nc3c(cc12)CCCCCC3
> 100 µM

// TGI lookup, key: COc1ccc(/C=C/C(=O)N[C@@H]2C(=O)N3[C@@H]2SC(C)(C)[C@@H]3C(=O)O)cc1
> 100 µM

// TGI lookup, key: Cc1ccccc1C(C#N)C(=O)C(=O)Nc1cccc(Cl)c1 (centres undefined)
> 100 µM

// TGI lookup, key: Oc1c(C2=N[C@H]3CCCC[C@@H]3N2)ccc2ccccc12
> 100 µM

// TGI lookup, key: C=C(C)[C@@H]1CC[C@]2(C)[C@H](CC[C@@H]3[C@H]4[C@H]5OC[C@@]4(CCC5(C)C)CC[C@]32C)[C@@]1(C)CCCN
2.91 µM

// TGI lookup, key: CC1=C(C(=O)NCc2ccccc2)C(c2ccccc2[N+](=O)[O-])C(C(=O)NCc2ccccc2)=C(C)N1
31.2 µM

* * *

# Tested on: TK-10 renal
# protocol: NCI tumour cell line growth inhibition, 48 h
measurement label: TGI

Worked cases, answers included:
1. CCCCCCCCCCCCCCCCCCOCC(CO[P+](=O)O)OCCCCCCCCCCCCCCCCCC (stereo unspecified) :: > 50 µM
2. O=c1ccn2n1CCCCC2 :: > 100 µM
3. CCCCCCCC[N+](C)(CCCCCCCC)CCCCCCCC :: 1.19 µM
4. CC(=O)N=c1ccc2nc3c(cc(N)c4ccccc43)oc-2c1 :: 6.34 µM
5. CN(C)CCCc1c[nH]c2ccccc12 :: > 100 µM

Consider the additional compound presented here.
// TGI lookup, key: NCCCN1CCN(CC(=O)O)CCN(CCCN)CCN(CC(=O)O)CC1
> 100 µM
